Biological target: Growth hormone secretagogue receptor type 1 (Homo sapiens, UniProt Q92847, F220A)
Sequence (Q92847 whole entry F220A): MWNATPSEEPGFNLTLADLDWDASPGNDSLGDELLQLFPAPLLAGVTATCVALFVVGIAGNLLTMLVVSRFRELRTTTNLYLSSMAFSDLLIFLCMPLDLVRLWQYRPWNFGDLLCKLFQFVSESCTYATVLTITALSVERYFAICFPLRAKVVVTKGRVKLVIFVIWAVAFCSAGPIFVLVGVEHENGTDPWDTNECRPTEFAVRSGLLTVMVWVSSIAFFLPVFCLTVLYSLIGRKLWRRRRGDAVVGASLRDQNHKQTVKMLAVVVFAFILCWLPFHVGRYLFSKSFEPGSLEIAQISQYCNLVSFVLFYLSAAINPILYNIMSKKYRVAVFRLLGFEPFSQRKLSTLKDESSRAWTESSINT
Assay: Inverse agonist activity at human ghrelin receptor Phe5:12Ala(Phe220) mutant expressed in african green monkey COS7 cells assessed as inhibition of constitutively stimulated inositol phosphate accumulation
Assay type: functional, cell-based, COS-7
result_type: IC50 (nM)

entry_smiles=CC(C)C[C@H](NC(=O)[C@H](CC(C)C)NC(=O)[C@@H](Cc1c[nH]c2ccccc12)NC(=O)[C@H](Cc1ccccc1)NC(=O)[C@@H](Cc1c[nH]c2ccccc12)NC(=O)[C@@H](N)CCCCN)C(N)=O reported_value=19

* * *

Biological target: Growth hormone secretagogue receptor type 1 (Homo sapiens, UniProt Q92847, E124Q)
Test: Agonist activity at human ghrelin receptor Glu3:09Gln(Glu124) mutant expressed in african green monkey COS7 cells assessed as stimulation of constitutively stimulated inositol phosphate accumulation
Type: functional, cell-based, COS-7
result_type: IC50

entry_smiles=CC(C)C[C@H](NC(=O)[C@H](CC(C)C)NC(=O)[C@@H](Cc1c[nH]c2ccccc12)NC(=O)[C@H](Cc1ccccc1)NC(=O)[C@@H](Cc1c[nH]c2ccccc12)NC(=O)[C@H](C)N)C(N)=O reported_value="> 1000 nM"

* * *

Biological target: Growth hormone secretagogue receptor type 1 (Homo sapiens, UniProt Q92847, Q120A)
Sequence (Q92847 whole entry Q120A): as the sequence (Q92847 whole entry F220A) above, with Q120A, A220F counted along it
Assay: Inverse agonist activity at human ghrelin receptor Gln3:05Ala(Gln120) mutant expressed in african green monkey COS7 cells assessed as inhibition of constitutively stimulated inositol phosphate accumulation
Format: functional, cell-based, COS-7
pIC50: −log10 of the molar value.
result_type: pIC50

entry_smiles=CC(C)C[C@H](NC(=O)[C@H](CC(C)C)NC(=O)[C@@H](Cc1c[nH]c2ccccc12)NC(=O)[C@H](Cc1ccccc1)NC(=O)[C@@H](Cc1c[nH]c2ccccc12)NC(=O)[C@@H](N)CCCCN)C(N)=O target_desc="Growth hormone secretagogue receptor type 1 (Homo sapiens, UniProt Q92847, Q120A)" reported_value="< 6.00"

* * *

Target: Growth hormone secretagogue receptor type 1 (Homo sapiens, UniProt Q92847, M213A)
Sequence (Q92847 whole entry M213A): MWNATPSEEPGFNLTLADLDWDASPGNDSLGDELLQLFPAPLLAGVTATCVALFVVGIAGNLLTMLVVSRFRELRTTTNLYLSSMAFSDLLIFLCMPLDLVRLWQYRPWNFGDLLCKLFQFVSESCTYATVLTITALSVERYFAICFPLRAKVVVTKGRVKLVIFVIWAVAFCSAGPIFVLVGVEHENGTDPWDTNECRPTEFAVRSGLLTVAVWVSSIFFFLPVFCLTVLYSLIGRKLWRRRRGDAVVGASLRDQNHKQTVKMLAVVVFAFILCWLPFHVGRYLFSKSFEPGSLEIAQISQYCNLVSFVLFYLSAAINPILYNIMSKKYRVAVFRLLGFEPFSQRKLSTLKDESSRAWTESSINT
Assay: Inverse agonist activity at human ghrelin receptor Met5:05Ala(Met213) mutant expressed in african green monkey COS7 cells assessed as inhibition of constitutively stimulated inositol phosphate accumulation
Assay type: functional, cell-based, COS-7
pIC50: −log10 of the molar value.
result_type: pIC50

entry_smiles=CC(C)C[C@H](NC(=O)[C@H](CC(C)C)NC(=O)[C@@H](Cc1c[nH]c2ccccc12)NC(=O)[C@H](Cc1ccccc1)NC(=O)[C@@H](Cc1c[nH]c2ccccc12)NC(=O)[C@@H](N)CCCCN)C(N)=O result_type=pIC50 reported_value=7.54

* * *

Molecular target: Growth hormone secretagogue receptor type 1 (Homo sapiens, UniProt Q92847, S217A)
Experiment: Agonist activity at human ghrelin receptor Ser5:09Ala(Ser217) mutant expressed in african green monkey COS7 cells assessed as stimulation of constitutively stimulated inositol phosphate accumulation
Format: functional, cell-based, COS-7
pIC50: −log10 of the molar value.
result_type: pIC50

entry_smiles=CC(C)C[C@H](NC(=O)[C@H](CC(C)C)NC(=O)[C@@H](Cc1c[nH]c2ccccc12)NC(=O)[C@H](Cc1ccccc1)NC(=O)[C@@H](Cc1c[nH]c2ccccc12)NC(=O)[C@H](C)N)C(N)=O result_type=pIC50 reported_value=7.85

* * *

Molecular target: Growth hormone secretagogue receptor type 1 (Homo sapiens, UniProt Q92847)
Sequence (Q92847 whole entry, looked up): as the sequence (Q92847 whole entry M213A) above, with A213M counted along it
Assay: Agonist activity at human ghrelin receptor Asp2:20Asn(Asp99) mutant expressed in african green monkey COS7 cells assessed as inhibition of inositol phosphate accumulation
Type: functional, cell-based
Details: cos-7
result_type: IC50

entry_smiles=CC(C)C[C@H](NC(=O)[C@H](CC(C)C)NC(=O)[C@@H](Cc1c[nH]c2ccccc12)NC(=O)[C@H](Cc1ccccc1)NC(=O)[C@@H](Cc1c[nH]c2ccccc12)NC(=O)[C@@H](N)CCCCN)C(N)=O target_desc="Growth hormone secretagogue receptor type 1 (Homo sapiens, UniProt Q92847)" reported_value="> 1000 nM"

Where these numbers come from: ChEMBL document CHEMBL1156448
